Tested on: Escherichia coli TOP10
Assay: shrunken log2 fold change of peptide-encoding DNA abundance (4.5 h post-induction vs induction); higher = less antimicrobial activity (less host growth inhibition)
Settings: time post-induction: 4.5 h; library: site-saturation at positions 5, 18, 19, 20
EXPERIMENTAL ENDPOINT: shrunken log2 fold change
Write the number on its own, no unit after it.

[
  {
    "SEQUENCE CHAIN": "RRIRSRPPRLPRPRPRPWWFPRP",
    "EXPERIMENTAL ENDPOINT": "shrunken log2 fold change",
    "REPORTED MEASUREMENT": 0.0202
  },
  {
    "SEQUENCE CHAIN": "RRIRIRPPRLPRPRPRPDMWPRP",
    "EXPERIMENTAL ENDPOINT": "shrunken log2 fold change",
    "REPORTED MEASUREMENT": -0.271
  },
  {
    "SEQUENCE CHAIN": "RRIRGRPPRLPRPRPRPVAAPRP",
    "EXPERIMENTAL ENDPOINT": "shrunken log2 fold change",
    "REPORTED MEASUREMENT": 1.73
  }
]

IN: Identify measured shrunken log2 fold change obtained with Escherichia coli TOP10 for RRIRVRPPRLPRPRPRPNVDPRP .
OUT: -0.0826

IN: Determine reported shrunken log2 fold change for RRIRPRPPRLPRPRPRPFVAPRP ; test system: Escherichia coli TOP10.
OUT: -0.186

* * *

Tested on: Escherichia coli TOP10
Experiment: shrunken log2 fold change of peptide-encoding DNA abundance (4.5 h post-induction vs induction); higher = less antimicrobial activity (less host growth inhibition)
Settings: time post-induction: 4.5 h; library: site-saturation at positions 5, 18, 19, 20
Would you please tag the item T when its shrunken log2 fold change is 0.03 or above, and F when it is below?

[
  {
    "SEQUENCE CHAIN": "RRIRSRPPRLPRPRPRPYWLPRP",
    "CLASS": "F"
  }
]

IN: Given the entry RRIRWRPPRLPRPRPRPMQGPRP , answer whether its shrunken log2 fold change meets or surpasses 0.03.
OUT: F

IN: Quick check, shrunken log2 fold change >= 0.03? RRIRFRPPRLPRPRPRPQEPPRP
OUT: T

IN: Kindly determine if shrunken log2 fold change recorded for RRIRYRPPRLPRPRPRPTPPPRP is above or exactly 0.03.
OUT: T

IN: Determine whether this sequence has shrunken log2 fold change no lower than 0.03: RRIRQRPPRLPRPRPRPSCHPRP
OUT: F

* * *

As shown below, each of these sequences has a reported shrunken log2 fold change value.
System: Escherichia coli TOP10
Test: shrunken log2 fold change of peptide-encoding DNA abundance (4.5 h post-induction vs induction); higher = less antimicrobial activity (less host growth inhibition)
Settings: time post-induction: 4.5 h; library: site-saturation at positions 5, 18, 19, 20
Answer using only a numeral; do not append any unit.

IN: Please supply the value of reported shrunken log2 fold change for the item RRIRERPPRLPRPRPRPTYLPRP
OUT: -0.178

IN: Indicate the recorded shrunken log2 fold change value for this sequence: RRIRFRPPRLPRPRPRPKKWPRP
OUT: 0.187

IN: Give reported shrunken log2 fold change value for RRIRPRPPRLPRPRPRPHPEPRP
OUT: 0.203

* * *

Test system: Escherichia coli TOP10;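 note: peptides expressed intracellularly from a pBAD plasmid library in pooled LB shake-flask culture, induced with 0.3% L-arabinose, DNA abundance read by NGS, three biological replicates, DESeq2 with apeglm shrinkage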
Assay: shrunken log2 fold change of peptide-encoding DNA abundance (4.5 h post-induction vs induction); higher = less antimicrobial activity (less host growth inhibition)
Conditions: time post-induction: 4.5 h; library: site-saturation at positions 5, 18, 19, 20
EXPERIMENTAL ENDPOINT: shrunken log2 fold change
Write the value as a bare number.

[
  {
    "SEQUENCE CHAIN": "RRIRERPPRLPRPRPRPVSSPRP",
    "MEASURED TARGET": "Escherichia coli TOP10",
    "EXPERIMENTAL ENDPOINT": "shrunken log2 fold change",
    "REPORTED MEASUREMENT": -0.215
  },
  {
    "SEQUENCE CHAIN": "RRIRGRPPRLPRPRPRPPFPPRP",
    "MEASURED TARGET": "Escherichia coli TOP10",
    "EXPERIMENTAL ENDPOINT": "shrunken log2 fold change",
    "REPORTED MEASUREMENT": 1.17
  },
  {
    "SEQUENCE CHAIN": "RRIRERPPRLPRPRPRPHEWPRP",
    "MEASURED TARGET": "Escherichia coli TOP10",
    "EXPERIMENTAL ENDPOINT": "shrunken log2 fold change",
    "REPORTED MEASUREMENT": -0.155
  }
]

Could you now consider this next sequence?
IN: Answer briefly: shrunken log2 fold change recorded on Escherichia coli TOP10 for RRIRERPPRLPRPRPRPLQVPRP
OUT: -0.384

Data origin, for the record: the supplement of paper PMC9112550
